Source listed as paper PMC5540273.

- Tested on: ERK2;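 further: KINOMEscan kinase panel screen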
- Construct: gene MAPK1
- cond: concentration: 1 μM, replicates: in singlicate; n = 1
observation_type: %Inh (%)

In [3]: df
Out[3]:
                                   molecule  observation_type  number
0  Cl.Fc1ccccc1COc1ccc(Nc2ncnc3ccc(-c4nnc(C(F)(F)F)o4)cc23)cc1Cl              %Inh       0
1   Clc1cc(Nc2ncnc3cc[nH]c23)ccc1OCc1ccccn1              %Inh      18
2  O=C(Nc1ccccc1F)NC1CCN(c2ccnc(Nc3ccc(F)cc3)n2)C1 (centres unmarked)              %Inh       0
3  CNc1nccc(-c2c(-c3ccc(F)cc3)ncn2C2CCN(C)CC2)n1              %Inh       0
4      COc1ccc(-c2nc3n(c2-c2ccncc2)CCC3)cc1              %Inh       0
